Hello, the source for this data is the supplement of paper PMC6555819, in case you need it.

For each record, write down the corresponding PBM binding z-score.
System: RARb:RXRa (NR concentration 270 nM, RXRa partner concentration 90 nM)
test description: PBM binding z-score (relative to random genomic background probes); higher = stronger binding; sequences stand for … in GC…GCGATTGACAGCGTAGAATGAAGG
I'd appreciate a reply containing only the number, no unit.

Req: Form field: PBM binding z-score recorded for GGAACGAGAGCAAGTTGATAGCAGAGTTTGATGG with RARb:RXRa (NR concentration 270 nM, RXRa partner concentration 90 nM) (enter value)
Resp: -0.427

Req: # value lookup — system RARb:RXRa (NR concentration 270 nM, RXRa partner concentration 90 nM), readout PBM binding z-score, item CCTTCCGGGTCACTCCAGGTTATAGCATCGGAGT
Resp: 3.77

Req: Hello, I am looking for reported PBM binding z-score with RARb:RXRa (NR concentration 270 nM, RXRa partner concentration 90 nM) for TCATATAGGCAAAGGTGAAAGTCGAACGATATGA . Could you help?
Resp: 1.74

Req: # returns recorded PBM binding z-score (system: RARb:RXRa (NR concentration 270 nM, RXRa partner concentration 90 nM)) for ACTATTAGTTGAGACGAGTGCAACCGATAGGTTG
Resp: 0.0996

Req: Short answer please: PBM binding z-score, RARb:RXRa (NR concentration 270 nM, RXRa partner concentration 90 nM), entry GCTGCTAGGTCAACTCATGGTCAGCTAAAGCTCG
Resp: 4.46

Req: Find PBM binding z-score (RARb:RXRa (NR concentration 270 nM, RXRa partner concentration 90 nM)) for the entry ATCTCTAGGTAACCAAGTTCAGTGACTGCCGAAC
Resp: 1.14

Req: Lab note: need PBM binding z-score for TCTATTAGTTGAAGCGCAACCGACGAGTCCGTTT on RARb:RXRa (NR concentration 270 nM, RXRa partner concentration 90 nM), anyone have it?
Resp: 0.271

Req: What measured PBM binding z-score is associated with GGAACGAGGGCATTCGTGTTGATAGCATGGCGAT on RARb:RXRa (NR concentration 270 nM, RXRa partner concentration 90 nM)?
Resp: 1.62

Req: API: value(readout= PBM binding z-score, system= RARb:RXRa (NR concentration 270 nM, RXRa partner concentration 90 nM), query= GCTACTGGGGCATCAGCAGGTTACCATAACTTAA )
Resp: 0.962

Req: Provide value of PBM binding z-score for this record tested with RARb:RXRa (NR concentration 270 nM, RXRa partner concentration 90 nM): CCTCGGAGGACAACAGGAGGTCAGACCTGCCAGA
Resp: 2.89

Req: Lookup: PBM binding z-score / RARb:RXRa (NR concentration 270 nM, RXRa partner concentration 90 nM) / TCATATATGTAAACAGGTGAAAGTCCGTAAGTTA
Resp: 0.572

Req: Missing value: PBM binding z-score, RARb:RXRa (NR concentration 270 nM, RXRa partner concentration 90 nM), entry TCCGCTAGGTCAACGATGGTCAGCTAATCTGCTA . Fill in?
Resp: 4.13

Req: Item: ATCGAAAGGTCGACGAGGTGAGCATACACCGTTT Test system: RARb:RXRa (NR concentration 270 nM, RXRa partner concentration 90 nM) Read-out: PBM binding z-score Value: ?
Resp: 3.9

Req: Item GCAGACAGGTGAAAAGCAGGTAACTCAGGGTGGC with RARb:RXRa (NR concentration 270 nM, RXRa partner concentration 90 nM) - PBM binding z-score?
Resp: 0.42

Req: Request - read-out PBM binding z-score | tested on RARb:RXRa (NR concentration 270 nM, RXRa partner concentration 90 nM) | sequence GCTTACGGGTCAAATGTTATAGCATGAATAGAAT
Resp: 3.88

Req: Param readout = PBM binding z-score; param system = RARb:RXRa (NR concentration 270 nM, RXRa partner concentration 90 nM); param query = ATATGTAGGTTATGGGGTCATTCAGTTTGCGCAT ; response: value
Resp: 3.54

Req: Tell me reported PBM binding z-score for CGAACTAGGTCATCCAGGACAGTGACTACATTGA , tested with RARb:RXRa (NR concentration 270 nM, RXRa partner concentration 90 nM).
Resp: 3.95

Req: Form entry - test system: RARb:RXRa (NR concentration 270 nM, RXRa partner concentration 90 nM); read-out: PBM binding z-score; sequence: ACTAGTTGGTCAACTGAGGTCACACACAATTCGG
Resp: 4.1

Req: Provide the documented PBM binding z-score with RARb:RXRa (NR concentration 270 nM, RXRa partner concentration 90 nM) as the system for TCGAGAAGGTTACCAATGGGGCATTCAGCTTTCT
Resp: 2.26

Req: Which PBM binding z-score is reported with RARb:RXRa (NR concentration 270 nM, RXRa partner concentration 90 nM) for this entry: ATCTCTAGGTAACAAGTTCAGAGAAAGAGAGGAC ?
Resp: 1.53

Req: Look up PBM binding z-score with RARb:RXRa (NR concentration 270 nM, RXRa partner concentration 90 nM) for this sequence: CGAACTAGGTAAGAACAGGACAGTGAAGGATGAT
Resp: -0.143

Req: Tell me reported PBM binding z-score for TATAGTTGGTCACGGAGGTCACACACGACGGGTA , tested with RARb:RXRa (NR concentration 270 nM, RXRa partner concentration 90 nM).
Resp: 4.09

Req: # get_value(readout= PBM binding z-score, system= RARb:RXRa (NR concentration 270 nM, RXRa partner concentration 90 nM)) for TTAACAAGGTGAGCTGAGGTCGTTGATCCAACTC
Resp: 1.66

Req: Quick check: PBM binding z-score on RARb:RXRa (NR concentration 270 nM, RXRa partner concentration 90 nM), item TCTGCTAGGTCAAAGATGGTCAGCTAATCTGCTA ?
Resp: 3.83

Req: Query for RARb:RXRa (NR concentration 270 nM, RXRa partner concentration 90 nM): what PBM binding z-score does the record show for CCGACTGGGGCAGAGGTTACCATACTCAGTACGA ?
Resp: 1.34

Req: Entry AGTCATAGTTCAGGACGAGGTAACGTAAAGCACG , system RARb:RXRa (NR concentration 270 nM, RXRa partner concentration 90 nM): what PBM binding z-score was measured?
Resp: 2.59

* * *

Field: PBM binding z-score. Provide a value for each of the sequences that follow.
System: RARb homodimer (NR concentration 270 nM)
test description: PBM binding z-score (relative to random genomic background probes); higher = stronger binding; sequences stand for … in GC…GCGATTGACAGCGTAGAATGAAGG
Answer with a bare number; do not write a unit.

Req: What reported PBM binding z-score corresponds to GCTAGTTGGTTAGTAAAAGGTCACACACCGGTCG on RARb homodimer (NR concentration 270 nM)?
Resp: 4.86

Req: Lab note: need PBM binding z-score with RARb homodimer (NR concentration 270 nM) for entry ATCTCTAGGGAAAGATAGTTCAGTGAATGCAAAT , please look it up.
Resp: 0.675

Req: Query the reported PBM binding z-score for RARb homodimer (NR concentration 270 nM); item: CGTCCAATGTCAGCAGGTCAGTGAAAGCGACGTG
Resp: 2.76

Req: Report PBM binding z-score for TCTTGTAGATCAAAGGTTAACAAAGCCGAAGCCT tested on RARb homodimer (NR concentration 270 nM).
Resp: 1.66

Req: Record ATCGAAAGGTCGAAGGTAAGTATACCCACCCGAA : what is its PBM binding z-score with RARb homodimer (NR concentration 270 nM)?
Resp: 2.18

Req: Test system RARb homodimer (NR concentration 270 nM); read-out PBM binding z-score; what value for TGTAGTTGGTCAAAGGTCACACACTCGAAATGCG ?
Resp: 4.97

Req: # value lookup — system RARb homodimer (NR concentration 270 nM), readout PBM binding z-score, item CCTCCAAGGTCAAGGTCAGTGAAAGAGACTCGAA
Resp: 5.05

Req: Enter reported PBM binding z-score observed with RARb homodimer (NR concentration 270 nM) for CAAACTAGGTTACCGGAAGGTCAAAGTCCGCATG
Resp: 4.55

Req: Requested read-out PBM binding z-score, target or system RARb homodimer (NR concentration 270 nM), entry TCTTGTAGATCAACAAGAGGTTAAGAAAGATCGA
Resp: 0.756

Req: Provide value of PBM binding z-score for this record tested with RARb homodimer (NR concentration 270 nM): TCTGATAGGTCAACGATGGTCAGCTAATCTGCTA
Resp: 3.94

Req: API: value(readout= PBM binding z-score, system= RARb homodimer (NR concentration 270 nM), query= TCTTATAGGTAAACAGGTGAAAGTCCGTAAGTTA )
Resp: 0.802

Req: Tell me reported PBM binding z-score for CAAACTAGGTCACTGAGGTCAAAGTCCGTGCGTA , tested with RARb homodimer (NR concentration 270 nM).
Resp: 5.53

Req: Query for RARb homodimer (NR concentration 270 nM): what PBM binding z-score does the record show for ATATGTAGGTTAGCGGGTCATTCAGTTTGCGCAT ?
Resp: 2.65

Req: Any idea what PBM binding z-score came out for CCTACTGGGCCATTCAGCGGTCATTGATCATATG on RARb homodimer (NR concentration 270 nM)?
Resp: 1.85

Req: Identify the measured PBM binding z-score of CCTACTGGGCAAAGGTCATTGATCAGTCAAAGCA for RARb homodimer (NR concentration 270 nM).
Resp: 4.39

Req: Give recorded PBM binding z-score with RARb homodimer (NR concentration 270 nM) for the following sequence: CCTTACGGCTCACTGACAGGTTATAGCATTTGGA
Resp: 0.213

Req: Return PBM binding z-score measured with RARb homodimer (NR concentration 270 nM) given this sequence: CTACCAATGTGAACAAGGTCGTTGATTACTATTC
Resp: 1.33

Req: Request: PBM binding z-score, test system RARb homodimer (NR concentration 270 nM), entry CCTACTGGGTCAAAAAGGTCATTGATGCCGATAA
Resp: 5.05

Req: Entry CCTACTGGGCCATCAGGTAATTGATATCAACGTT , system RARb homodimer (NR concentration 270 nM): what PBM binding z-score was measured?
Resp: 0.184

Req: Hi! What's the reported PBM binding z-score for GCTAGTTGGTCAGTAAAAGGTAACACACCGGTCG on RARb homodimer (NR concentration 270 nM)?
Resp: 1.31

Req: Report PBM binding z-score for CCTCGGAGGACAACAAGAGGTCAGAGCTGCCAGA tested on RARb homodimer (NR concentration 270 nM).
Resp: 3.8

Req: Give the reported PBM binding z-score for CCTACTTGGTCAAGGTCACACACGCTATAGGTAC (system: RARb homodimer (NR concentration 270 nM)).
Resp: 4.57

Req: Notebook entry, RARb homodimer (NR concentration 270 nM) assay: PBM binding z-score of TCTTGTAGATCCATAGAGGTTAAGAAAGTGCGCT = ?
Resp: 1.25

Req: Observed PBM binding z-score on RARb homodimer (NR concentration 270 nM) for ACTATTAGTTGACTTAGGGCAACCGGTACGACGC , please.
Resp: 1.12

Req: Short answer please: PBM binding z-score, RARb homodimer (NR concentration 270 nM), entry CTCGAAAGGTCGTGCTCAGGTCAGTATACCAAAC
Resp: 4.16

Req: Given the entry ATCTCTAGGTAACAAGTTCAGTGAAAGAGAGGAC , what PBM binding z-score was observed with RARb homodimer (NR concentration 270 nM)?
Resp: 1.78

Req: Kindly state the measured PBM binding z-score obtained for CCTAGTTGGTCAAGGGCACACACGCTATAGGTAC with RARb homodimer (NR concentration 270 nM).
Resp: 1.78

Req: Short answer please: PBM binding z-score, RARb homodimer (NR concentration 270 nM), entry CAAACTAGGTCACAGAAGTCAAAGTCCGTGCGTA
Resp: 3.41

Req: Could you share what PBM binding z-score was measured for GCGACTGGGGCAAAGCAGGATACCATAAGGTTGG , tested on RARb homodimer (NR concentration 270 nM)?
Resp: 0.194

Req: For the record CAAACTAGGTCACAGAGTTCAAAGTCCGTGCGTA , what value of PBM binding z-score is listed for RARb homodimer (NR concentration 270 nM)?
Resp: 4.74

Req: What measured PBM binding z-score is associated with ATCTCTAGGTAAGACTCAGTTCACTGAAGAACGC on RARb homodimer (NR concentration 270 nM)?
Resp: 0.746

Req: Query for RARb homodimer (NR concentration 270 nM): what PBM binding z-score does the record show for CGAAAGAGGGCATGAGTTGATAGCAAATGCCGAT ?
Resp: 1

Req: Lab note: need PBM binding z-score with RARb homodimer (NR concentration 270 nM) for entry GCTAGTTGGTCAGTAAAAGGTCACACAACGGTCG , please look it up.
Resp: 5.29

Req: Checklist item: PBM binding z-score tested on RARb homodimer (NR concentration 270 nM), entry ACTGTTAGTTGACTTAGGGCAACCGATACGACGC , value?
Resp: 1.09
